Reference source for all entries: patent US7910609B2

Biological target: integrin α2β1 (Homo sapiens, UniProt P05556+P17301)
Construct: Human blood was obtained by venipuncture from healthy volunteers; endogenous in cells; host or cells: washed human platelets from blood of healthy volunteers
Sequence (P17301 30-1181): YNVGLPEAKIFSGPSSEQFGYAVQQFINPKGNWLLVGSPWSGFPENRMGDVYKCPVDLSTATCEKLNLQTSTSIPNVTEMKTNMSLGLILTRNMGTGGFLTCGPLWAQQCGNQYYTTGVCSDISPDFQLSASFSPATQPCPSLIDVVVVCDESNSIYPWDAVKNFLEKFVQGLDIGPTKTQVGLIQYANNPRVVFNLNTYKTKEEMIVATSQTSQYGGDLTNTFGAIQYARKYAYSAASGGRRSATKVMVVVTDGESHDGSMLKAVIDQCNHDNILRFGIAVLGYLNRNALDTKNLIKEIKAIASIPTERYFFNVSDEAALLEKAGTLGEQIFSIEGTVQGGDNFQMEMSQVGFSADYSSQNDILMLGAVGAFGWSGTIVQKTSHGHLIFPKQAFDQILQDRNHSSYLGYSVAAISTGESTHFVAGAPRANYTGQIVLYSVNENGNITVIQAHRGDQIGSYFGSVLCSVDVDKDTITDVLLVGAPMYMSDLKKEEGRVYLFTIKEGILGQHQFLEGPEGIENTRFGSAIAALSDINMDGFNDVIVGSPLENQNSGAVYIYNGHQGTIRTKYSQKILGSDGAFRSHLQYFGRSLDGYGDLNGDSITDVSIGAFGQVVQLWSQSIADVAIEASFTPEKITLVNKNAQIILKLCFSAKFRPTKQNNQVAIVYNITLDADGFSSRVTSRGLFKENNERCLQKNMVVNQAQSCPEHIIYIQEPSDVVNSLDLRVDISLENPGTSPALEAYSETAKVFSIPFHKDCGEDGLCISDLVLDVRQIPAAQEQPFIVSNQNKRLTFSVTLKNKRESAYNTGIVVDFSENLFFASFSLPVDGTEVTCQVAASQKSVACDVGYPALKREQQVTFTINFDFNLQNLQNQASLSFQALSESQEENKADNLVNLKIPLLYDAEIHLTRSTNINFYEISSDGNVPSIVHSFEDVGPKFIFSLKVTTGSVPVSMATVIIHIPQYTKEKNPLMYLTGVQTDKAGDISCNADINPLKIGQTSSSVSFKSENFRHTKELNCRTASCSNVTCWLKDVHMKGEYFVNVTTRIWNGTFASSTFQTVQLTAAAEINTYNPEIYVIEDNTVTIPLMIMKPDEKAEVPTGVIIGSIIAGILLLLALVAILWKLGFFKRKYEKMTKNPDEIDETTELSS
Sequence (P05556 21-798): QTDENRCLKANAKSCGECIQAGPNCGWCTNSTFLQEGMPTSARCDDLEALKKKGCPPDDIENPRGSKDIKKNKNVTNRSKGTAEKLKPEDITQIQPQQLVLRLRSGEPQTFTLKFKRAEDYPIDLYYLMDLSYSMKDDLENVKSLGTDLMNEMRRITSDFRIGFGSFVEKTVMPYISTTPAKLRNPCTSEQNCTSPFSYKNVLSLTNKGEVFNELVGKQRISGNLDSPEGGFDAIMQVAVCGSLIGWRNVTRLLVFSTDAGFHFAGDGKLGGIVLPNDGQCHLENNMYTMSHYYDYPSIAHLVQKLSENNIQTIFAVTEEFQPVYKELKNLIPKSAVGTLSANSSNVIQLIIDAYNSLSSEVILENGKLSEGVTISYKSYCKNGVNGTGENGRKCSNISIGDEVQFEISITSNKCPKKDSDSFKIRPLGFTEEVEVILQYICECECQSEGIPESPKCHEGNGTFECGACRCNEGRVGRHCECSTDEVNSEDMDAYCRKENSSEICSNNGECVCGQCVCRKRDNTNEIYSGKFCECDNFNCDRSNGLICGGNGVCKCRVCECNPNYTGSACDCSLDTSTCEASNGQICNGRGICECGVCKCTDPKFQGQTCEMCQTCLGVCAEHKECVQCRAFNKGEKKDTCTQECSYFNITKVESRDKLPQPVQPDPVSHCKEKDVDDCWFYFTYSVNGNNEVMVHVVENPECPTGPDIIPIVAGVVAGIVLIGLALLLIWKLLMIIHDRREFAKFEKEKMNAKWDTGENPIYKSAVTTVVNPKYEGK
Assay: Platelet adhesion assay: washed human platelet binding to soluble type I collagen
Type: cell-based
Settings: Table 1; washed human platelets, soluble type I collagen, 30 min at 37° C.
Decision: IC50 beneath 30 nM gives Yes; IC50 meeting or exceeding 30 nM gives No.

input: Bench note: check whether CC1(C)SCN(S(=O)(=O)c2ccccc2)C1C(=O)N[C@@H](CNC(=O)NC(c1ccccc1)c1ccccc1)C(=O)O (some centres unmarked) shows IC50 below 30 nM
output: No

input: Bench note: check whether Cc1ccc(CNC(=O)NC[C@H](NC(=O)C2N(S(=O)(=O)c3ccccc3)CSC2(C)C)C(=O)O)cc1 (some centres unmarked) shows IC50 below 30 nM
output: Yes

input: Bench note: check whether Cc1ccccc1CNC(=O)NC[C@H](NC(=O)C1N(S(=O)(=O)c2ccccc2)CSC1(C)C)C(=O)O (some centres unmarked) shows IC50 below 30 nM
output: Yes

input: Bench note: check whether CC1(C)SCN(S(=O)(=O)c2ccccc2)C1C(=O)N[C@@H](CNC(=S)NCc1ccccc1)C(=O)O (some centres unmarked) shows IC50 below 30 nM
output: Yes

input: Bench note: check whether CC(C)(C)CNC(=O)NC[C@H](NC(=O)C1N(S(=O)(=O)c2ccccc2)CSC1(C)C)C(=O)O (some centres unmarked) shows IC50 below 30 nM
output: Yes

input: Bench note: check whether C[C@H](NC(=O)NC[C@H](NC(=O)C1N(S(=O)(=O)c2ccccc2)CSC1(C)C)C(=O)O)c1ccccc1 (some centres unmarked) shows IC50 below 30 nM
output: No

input: Bench note: check whether CC1(C)SCN(S(=O)(=O)c2ccccc2)C1C(=O)N[C@@H](CNC(=O)NCC1CCCCC1)C(=O)O (some centres unmarked) shows IC50 below 30 nM
output: Yes

input: Bench note: check whether CC1(C)SCN(S(=O)(=O)c2ccccc2)C1C(=O)N[C@@H](CNC(=O)NCCc1ccccc1)C(=O)O (some centres unmarked) shows IC50 below 30 nM
output: No

input: Bench note: check whether Cc1cccc(CNC(=O)NC[C@H](NC(=O)C2N(S(=O)(=O)c3ccccc3)CSC2(C)C)C(=O)O)c1 (some centres unmarked) shows IC50 below 30 nM
output: Yes

input: Bench note: check whether CC1(C)SCN(S(=O)(=O)c2ccccc2)C1C(=O)N[C@@H](CNC(=O)NCc1ccc(Br)cc1)C(=O)O (some centres unmarked) shows IC50 below 30 nM
output: Yes

input: Bench note: check whether CC1(C)SCN(S(=O)(=O)c2ccccc2)C1C(=O)N[C@@H](CNC(=O)NCc1ccc(C(F)(F)F)cc1)C(=O)O (some centres unmarked) shows IC50 below 30 nM
output: No

input: Bench note: check whether CC1(C)SCN(S(=O)(=O)c2ccccc2)C1C(=O)N[C@@H](CNC(=O)NCc1ccc(Cl)cc1)C(=O)O (some centres unmarked) shows IC50 below 30 nM
output: Yes

input: Bench note: check whether C[C@@H](NC(=O)NC[C@H](NC(=O)C1N(S(=O)(=O)c2ccccc2)CSC1(C)C)C(=O)O)c1ccccc1 (some centres unmarked) shows IC50 below 30 nM
output: Yes

input: Bench note: check whether CC1(C)SCN(S(=O)(=O)c2ccccc2)C1C(=O)N[C@@H](CNC(=O)NCC(c1ccccc1)c1ccccc1)C(=O)O (some centres unmarked) shows IC50 below 30 nM
output: No

* * *

Target: integrin α2β1 (Homo sapiens, UniProt P05556+P17301)
Construct: Human blood was obtained by venipuncture from healthy volunteers; endogenous in cells; host or cells: washed human platelets from blood of healthy volunteers
Test: Platelet adhesion assay: washed human platelet binding to soluble type I collagen
Format: cell-based
Conditions: Compounds Produced in Accordance with Scheme 2
QUANTITY: pIC50
// pIC50 is dimensionless: -log10 of concentration (M)

input: Please report the measured pIC50 for CC1OCN(S(=O)(=O)c2ccccc2)C1C(=O)NC(CNC(=O)NCc1ccccc1)C(=O)O (centres unmarked)
output: 7.92

input: Please report the measured pIC50 for O=C(NCc1ccccc1)NCC(NC(=O)C1CCN1S(=O)(=O)c1ccccc1)C(=O)O (centres unmarked)
output: 6.67
